Data provenance is PubChem BioAssay (NCI).

Examples of molecules with documented growth follow.
# System: K-562 leukemia
# TEST_NAME: NCI-60 one-dose screen, 48 h (100 = growth as untreated, 0 = no growth, -100 = all killed)
# MEASUREMENT_PARAMETERS: 10 µM unless noted
The panel holds about 83,000 compounds, 20% with a hit somewhere; the sample as a whole holds those more often.
Answer with a number only, understood to be in %.

Answered cases to consult:
1. COc1ccc(F)cc1/C=C/C(=O)/C=C(/C=C/c1cc(F)ccc1OC)OB(F)F	7.73
2. O=C(O)c1cn(C2CC2)c2cc(N3CCN(Cc4ccc5ccccc5c4O)CC3)c(F)cc2c1=O	62
3. CC1=NC2=Nn3c(c4cnn(-c5ccccc5)c4n/c3=N\N)NN2C(c2ccccc2)=C1	102
4. Ic1ccc(OCCCCn2ccnc2)cc1	37.6
5. CCCCNC(=O)Oc1ccc(/C(=C(/C)Cc2ccc(OC)cc2)c2ccc(OCCN3CCCC3)cc2)cc1	-27.8

-- ask For the molecule `CC(=O)c1c(C)nc2ccccc2c1/C=C/c1ccc(F)cc1` , what growth is on record?
-- reply 60.2

-- ask Repeat for the following molecule: `COc1ccc(-c2ccc(=O)oc2-c2cc(OC)c(OC)c(OC)c2)cc1O`
-- reply -25.7

-- ask Repeat for the following molecule: `CCCCCCCCCc1ccc(OCCOCCOCCOCCOCCOCCOCCOCCOCCO)cc1`
-- reply 10.5

-- ask Repeat for the following molecule: `CC(=O)Oc1ccc(/C(=C(\C)c2ccc(Cl)cc2)c2ccc(OCCN3CCCCC3)cc2)cc1`
-- reply -47

-- ask Repeat for the following molecule: `COc1ccc(C(=O)c2cc3c(N)c(C(=O)Nc4ccc(C)cc4)sc3nc2C)cc1`
-- reply 13.6
